B1: Gamma-crystallin D, residues 90 to 170; numbered along this chain, P07320 (parent)
chain: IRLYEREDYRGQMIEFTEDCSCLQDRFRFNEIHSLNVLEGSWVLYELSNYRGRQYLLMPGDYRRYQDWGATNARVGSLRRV

variants of: B1; assay: abundance fitness (aPCA) (normalised: wild type 0, dead -1); higher = more abundant; growth selection in yeast, the domain comes from the species named; conditions: Homo sapiens
abundance fitness vs 0.03: at or above is Y, below is N.

Lookup: # bool: abundance fitness of "R6Q" >= 0.03
Found: N

Lookup: Check this variant for abundance fitness at or above 0.03: "R53C"
Found: N

Lookup: Identify whether the reported abundance fitness of the following variant is 0.03 or greater: "Y4L"
Found: N

Lookup: Decide: abundance fitness of "T17P" >= 0.03?
Found: Y

Lookup: // inclusive: abundance fitness at least 0.03? input: "E39W"
Found: N

Lookup: Evaluate "L38R" : abundance fitness at minimum 0.03?
Found: N

Lookup: Identify whether the reported abundance fitness of the following variant is 0.03 or greater: "R28Q"
Found: Y
